- system: BRAF (Homo sapiens, UniProt P15056)
- Construct: purchased Invitrogen
- Sequence (P15056 whole entry): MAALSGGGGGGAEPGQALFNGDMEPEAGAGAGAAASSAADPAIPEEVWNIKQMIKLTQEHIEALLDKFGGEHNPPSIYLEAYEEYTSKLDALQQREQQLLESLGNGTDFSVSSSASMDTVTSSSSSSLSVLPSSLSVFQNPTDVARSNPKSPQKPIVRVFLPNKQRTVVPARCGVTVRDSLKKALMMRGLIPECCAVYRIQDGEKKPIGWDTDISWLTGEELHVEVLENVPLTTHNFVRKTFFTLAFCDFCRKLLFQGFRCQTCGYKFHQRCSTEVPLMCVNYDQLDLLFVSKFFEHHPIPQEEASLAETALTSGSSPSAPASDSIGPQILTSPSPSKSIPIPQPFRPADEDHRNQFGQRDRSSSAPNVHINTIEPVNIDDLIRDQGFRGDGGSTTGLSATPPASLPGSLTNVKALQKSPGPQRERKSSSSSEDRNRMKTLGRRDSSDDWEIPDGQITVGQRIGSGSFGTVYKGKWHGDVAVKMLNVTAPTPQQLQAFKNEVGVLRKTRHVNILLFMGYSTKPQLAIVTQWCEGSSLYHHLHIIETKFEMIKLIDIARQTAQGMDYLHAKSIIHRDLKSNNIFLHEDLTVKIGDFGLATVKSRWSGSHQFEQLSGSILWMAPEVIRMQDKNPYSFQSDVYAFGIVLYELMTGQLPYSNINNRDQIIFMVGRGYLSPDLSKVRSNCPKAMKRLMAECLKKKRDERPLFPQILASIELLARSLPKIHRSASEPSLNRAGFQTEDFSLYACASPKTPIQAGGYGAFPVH
- methodNotes: In vitro kinase assay (Z′-LYTE)
- Format: biochemical
- conditionsUsed: compound 100 nM; ATP 100 μM; read-out: % of inhibition of the kinase compared to the control
propertyName: inhibition at 0.1 µM

Solved entries:
compound	inhibition at 0.1 µM
COC(=O)c1cc2cc(NCc3cc(NC(=O)c4ccc(CN5CCN(C)CC5)c(C(F)(F)F)c4)ccc3C)cnc2[nH]1 [OR0512]	≥ 50%
COC(=O)c1cc2cc(NCc3cc(NC(=O)c4ccc(CN5CCN(C)CC5)c(C(F)(F)F)c4)ccc3F)cnc2[nH]1 [OR0816]	< 50%
COC(=O)c1cc2cc(NC(=O)c3cccc(CNC(=O)c4ccc(CN5CCN(C)CC5)c(C(F)(F)F)c4)c3)cnc2[nH]1 [OR0983]	< 50%
COC(=O)c1cc2cc(NC(=O)c3cccc(CNC(=S)c4cccc(C(F)(F)F)c4)c3)cnc2[nH]1 [OR1011]	< 50%
COC(=O)c1cc2cc(NCc3cc(NC(=O)c4cc(CN5CCN(C)CC5)cc(C(F)(F)F)c4)ccc3C)cnc2[nH]1 [OR0699]	≥ 50%
COC(=O)c1cc2cc(NCc3cc(NC(=O)c4ccc(CN5CCC(N(C)C)C5)c(F)c4)ccc3C)cnc2[nH]1 (stereo not shown) [OR0974]	≥ 50%
COC(=O)c1cc2cc(NCc3cc(NC(=O)c4cccc(Br)c4)ccc3C)cnc2[nH]1 [OR0608]	≥ 50%
CCCOC(=O)c1cc2cc(NCc3cc(NC(=O)c4ccc(CN5CCN(C)CC5)c(C(F)(F)F)c4)ccc3C)cnc2[nH]1 [OR0697]	< 50%
COC(=O)c1cc2cc(NCc3cc(NC(=O)c4cc(N(C)C)cc(C(F)(F)F)c4)ccc3C)cnc2[nH]1 [OR0597]	< 50%
COC(=O)c1cc2cc(NCc3cc(NC(=O)c4cc(N5CCN(C)CC5)cc(C(F)(F)F)c4)ccc3C)cnc2[nH]1 [OR0698]	< 50%

Query block: Quick one: inhibition at 0.1 µM for COC(=O)c1cc2cc(NCc3cc(NC(=O)c4cncc(C(F)(F)F)c4)ccc3C)cnc2[nH]1 [OR0604] ?
Result block: ≥ 50%

Query block: Quick check: inhibition at 0.1 µM of COC(=O)c1cc2cc(NCc3cccc(C(=O)Nc4cccnc4)c3)cnc2[nH]1 [OR0916] ?
Result block: < 50%

Query block: Return reported inhibition at 0.1 µM; argument: COC(=O)c1cc2cc(NCc3cc(NC(=S)c4ccc(CN5CCN(C)CC5)c(C(F)(F)F)c4)ccc3C)cnc2[nH]1 [OR0626]
Result block: < 50%

---

- system: BRAF (Homo sapiens)
- Construct: purchased Invitrogen
- methodNotes: In vitro kinase assay (Z′-LYTE)
- Format: biochemical
- conditionsUsed: compound 100 nM; ATP 100 μM; read-out: % of inhibition of the kinase compared to the control
propertyName: inhibition at 0.1 µM

Examples from the recorded data:
compound	inhibition at 0.1 µM
COC(=O)c1cc2cc(NCc3cc(NC(=O)Nc4cccnc4)ccc3C)cnc2[nH]1 [OR0896]	≥ 50%
COC(=O)c1cc2cc(NCc3cc(NC(=O)c4cccc(C)c4)ccc3C)cnc2[nH]1 [OR0607]	≥ 50%
COC(=O)c1cc2cc(NCc3cc(NC(=O)c4cccc(C(F)(F)F)c4)ccc3C)cnc2[nH]1 [OR0606]	< 50%
COC(=O)c1cc2cc(NCc3cc(NC(=O)c4cccc(C(C)C)c4)ccc3C)cnc2[nH]1 [OR0610]	< 50%

Query block: Item under review: COC(=O)c1cc2cc(NCc3cc(NC(=O)c4ccc5[nH]ccc5c4)ccc3C)cnc2[nH]1 [OR0617] . Reported inhibition at 0.1 µM?
Result block: ≥ 50%

Query block: // query inhibition at 0.1 µM value for entry COC(=O)c1cc2cc(NCc3cc(NC(=O)c4ccc(CN5CCOCC5)c(C(F)(F)F)c4)ccc3C)cnc2[nH]1 [OR0598]
Result block: < 50%

Query block: Give the measured inhibition at 0.1 µM of COC(=O)c1cc2cc(NCc3cc(NC(=O)c4ccc(O)c(C(F)(F)F)c4)ccc3C)cnc2[nH]1 [OR0605] .
Result block: < 50%

Query block: Given COC(=O)c1cc2cc(NCc3cc(NC(=O)c4ccc5[nH]nnc5c4)ccc3C)cnc2[nH]1 [OR0616] , state its recorded inhibition at 0.1 µM.
Result block: ≥ 50%

Data origin, for the record: patent US9493455B2
